# System: MS2 coat protein
# ASSAY_NOTES: apparent KD of MS2 coat protein; higher = weaker reporter binding
# RUN_PARAMETERS: Eterna round: R107; input ligand: theophylline 20 uM
Is apparent KD of MS2 coat protein at least 20 nM? Then Fulfilled. If not, Not fulfilled.

These recorded examples may help you get a feel for the data.
>>> group("UGUAUGUGAUUUGAUACCAGAUCAGCUGGUUAUACAUGAGGAUCACCCAUGUUACUUUGGGUCCCUUGGCAGCAAAUCGCAUACU [SSTheo B #26]")
"Fulfilled"
>>> group("UUUACAUGAGGAUCACCCAUGUGCCAUGAUACCAGACAUGAAAAUGUCCCUUGGCAGCAUGAAUAAUCCUCGUCGGGAAACCGAC [Lisen]")
"Fulfilled"
>>> group("AACUGGAAAAGUGAUACCAGAGACAUGAGGAUCACCCAUGUACAUGAGGAUCACCCAUGUCUCCCUUGGCAGCACAAAAGGGAGA [Exclusion Theophylline B Gf11]")
"Fulfilled"
>>> group("UUCAAAGGGAACGGUGCUGGUGACAGAGAUACCAGAGUAGUAAUACUCCCUUGGCAGCUCAGAACAUGAGGAUCACCCAUGUAAU [Exclusion Theophylline A GF22]")
"Fulfilled"
>>> group("UGACAUUGCUCAGAUACCAGACGUGAGGAUCACCCACGUGCCAACAAGUACAAAAUAAAUGUCCCUUGGCAGCUGAGCAAUGUCU [TheoBX 26 #MS2Left #AlternativeMS2 #Theo22]")
"Not fulfilled"

Input: Can UGAUGGAACGGAAGGAGCGUGUAAGAACAAGAACAUGAGGAUCACCCAUGUAUUAAUUUAACACAGGUAGGUCGCCGAGAUAUUG [11.E] be said to have apparent KD of MS2 coat protein at or above 20 nM?
Output: Fulfilled

* * *

# System: K4 kissing-loop RNA reporter;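 also: bound reporter read as fluorescence of individual clusters on recovered sequencing chips by microscopy, with normalized cluster intensities fitted with a binding model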
# ASSAY_NOTES: apparent KD of K4 kissing-loop reporter; higher = weaker reporter binding
# RUN_PARAMETERS: Eterna round: R107; input ligand: theophylline 20 uM
Recorded apparent KD of K4 kissing-loop reporter values for a group of sequences are listed next.
I only need the number, in µM, no unit after it.

# count of solved cases: 2
>>> experimental_result("UGUAAGCGCGUAGAUACCAGCAAACAAAGAGUGAUGUUCAGAUUAAGGAAAAGAAAGUAAUGCCCUUGGCAGCUAAUCAUAAGCG [Theophylline B Exclusion; Euphoria Solution]")
0.497
>>> experimental_result("CGAGUGAUGUUCGUUCGUUUAUUUCGUUGACAGGAUAUGCGGAAACGCAGAAGGGUCACCUUUGAGUUAACGGAAUUUACGUUAU [Ex FMN A 27]")
0.552

Input: What value of apparent KD of K4 kissing-loop reporter has been reported for the following sequence? CUAGAAGUGAUGUUUCAUAGUAAAUCUGAUACCAGCAUUAAACCCUGCCCUUGGCAGCAGAAUGGGCUGAUAGACUCCUGCAGCU [theeternabot_sameState_KL_Theo_A_36]
Output: 0.208

Input: Look up apparent KD of K4 kissing-loop reporter: GGUGACAACCAGGAGUGAUGUAUAGAAUAGCGAGGACCGGUACGGCCGCCACUCGUGAAGAGAAAGGAGUGAUGUUCCGUAAUGG [Kazoo C3]
Output: 0.0742

Input: What value of apparent KD of K4 kissing-loop reporter has been recorded for this entry: GUGACGCGGACGGCCGCCACUCCGGUGACCGCUCCGUGCCGCCCUGCGCGAGUGAUGUUCGCCAGGAGGACCGGGUCCGACUUUA [Soesente]
Output: 0.0894

Input: apparent KD of K4 kissing-loop reporter for CCGCUGCCCUCAGGAUAUUAAGUAUUAGUGAUGUUAGUAAACCGAUGGCGAAAGCCAUCGGUAUGUUGAGAAGGGAGGGUAGCGG [whbob_SS_FMNB__2th199] ?
Output: 1.14
